target: HLA-A*02:02; assay: IEDB peptide-MHC binding, purified MHC/competitive/radioactivity; bounds were set here for any values at or beyond the usual limits of such assays; conditions: source organism: Vaccinia virus WR
Lab note: compare IC50 with 200 nM, writing label 1 if less and label 0 if equal or more.

Solved entries:
YTFAISYCRA = label 0
SIFVSTMPV = label 1
IINSVSIIL = label 0
AIFNNRNLAA = label 0
SLVSKHWEL = label 1

## Input For YLLMHLVSL , is the recorded IC50 below the cut-off of 200 nM?
## Output label 1

## Input Try this sequence next: FVDTMSIYI
## Output label 1

## Input Try this sequence too: YVHSLLYSSM
## Output label 0

====

target: HLA-A*02:03; experiment: IEDB peptide-MHC binding, cellular MHC/competitive/fluorescence; bounds were set here for any values at or beyond the usual limits of such assays; conditions: source organism: Mammarenavirus guanaritoense
READOUT KIND: pIC50
Lab note: report pIC50 as minus log10 of the concentration in molar units, number only.

MNNVVQALT = 4.67
TNAEFTFQL = 4.82
WSAIFFTTSL = 5.16
LCFWSAIFFT = 4.52

Turning now to a further record.
## Input Query pIC50 on HLA-A*02:03 for CNYTRFWYI
## Output 5.27

====

target: HLA-A*02:03; assay: IEDB peptide-MHC binding, purified MHC/competitive/radioactivity; bounds were set here for any values at or beyond the usual limits of such assays; conditions: source organism: SARS-CoV1
pIC50: −log10 of the molar value.
Returns Criterion met if the recorded pIC50 is greater than or equal to 7, and Criterion not met otherwise.

Some entries whose results are on file:
FLNGSCGSV = Criterion met
SLCSCICTV = Criterion met
LVTSFLLMIV = Criterion met
ILFLTLIVFT = Criterion not met
AQFLYLYAL = Criterion met

## Input Does the reported pIC50 for AIYVFCISL fall at or above the 7 mark?
## Output Criterion not met

## Input How about this sequence: FLLPSLATV
## Output Criterion met

====

biological target: HLA-A*02:01; experiment: IEDB peptide-MHC binding, purified MHC/competitive/radioactivity; bounds were set here for any values at or beyond the usual limits of such assays; settings: source organism: Mammarenavirus guanaritoense
# IC50 listing for each entry below
Numeric only. Scale: nM

In the examples that follow, each entry is paired with its recorded IC50.
CNYTRFWYI = 1660
TSVDLNAPV = 464
YCNYTRFWYI = 322

Now, please, on to the next sequence.
## Input Short answer please: IC50, HLA-A*02:01, entry TLVDLCFWS
## Output 61

====

biological target: HLA-A*02:06; assay: IEDB peptide-MHC binding, cellular MHC/competitive/fluorescence; bounds were set here for any values at or beyond the usual limits of such assays; details: source organism: Mammarenavirus brazilense
READOUT KIND: pIC50
The read-out pIC50 is expressed as -log10 of concentration in moles per litre.

Some entries whose results are on file:
RSASGGVYL = 4.87
LRYFIMAYV = 4.70

The record that follows has no pIC50 shown yet.
## Input # pIC50 lookup, item ICFWSTLFFT
## Output 4.46

====

biological target: HLA-A*68:02; assay: IEDB peptide-MHC binding, purified MHC/competitive/radioactivity; bounds were set here for any values at or beyond the usual limits of such assays; settings: source organism: Mammarenavirus machupoense
READOUT KIND: log10(IC50) (log10 of the value in µM)
Field: value | Transform: log10 | Quantity: IC50 | Unit: µM

Recorded results for 5 sequences are shown here.
SSWAVHWFS = 0.61
LNIALVAVSL = -0.28
ALNIALVAV = 0.52
KSFFWFNEV = -1.08
KSYFTNAAL = -0.97

Next sequence, log10(IC50) to be filled in.
## Input Entry AMPGVLSYV : reported log10(IC50) = ?
## Output -0.08

====

target: HLA-A*02:03; assay: IEDB peptide-MHC binding, purified MHC/competitive/radioactivity; bounds were set here for any values at or beyond the usual limits of such assays; conditions: source organism: Mammarenavirus brazilense
READOUT KIND: pIC50
Answer as the number alone; pIC50 is minus log10 of concentration in mol/L.

## Input pIC50 lookup needed for HSLPRCWLV , thanks.
## Output 6.83

## Input Same read-out for GLLEWIFRA ?
## Output 6.65

## Input Also need LRYFIMAYV , thanks.
## Output 6.40

## Input Then YNYSLSAAV ?
## Output 7.17

## Input Another sequence to look at: KCFGNTALA
## Output 5.96

## Input Would you kindly repeat that for TSLGLLYTV ?
## Output 6.39

## Input Proceed to LLPDALLFTL
## Output 6.13

## Input For LSNCVHPAV then?
## Output 5.96

====

target: HLA-A*02:03; test: IEDB peptide-MHC binding, cellular MHC/competitive/fluorescence; bounds were set here for any values at or beyond the usual limits of such assays; conditions: source organism: Mammarenavirus whitewaterense
READOUT KIND: IC50 (µM)
Respond with the bare value in µM.

## Input Need IC50 of YCHGILLKDV , thanks.
## Output 13

## Input Let us now turn to FSAVISGSV
## Output 14.1

## Input And for VCFWSTLFYV ?
## Output 7.02

## Input GLLQFIVFL ?
## Output 7.72

====

molecular target: HLA-A*02:01; test: IEDB peptide-MHC binding, purified MHC/competitive/radioactivity; bounds were set here for any values at or beyond the usual limits of such assays; details: source organism: Vaccinia virus WR
pIC50: −log10 of the molar value.
Quick rule: pIC50 of at least 6 means criterion met, below that means criterion not met.

VMDTLNGIMM = criterion met
YVSPTEMVDV = criterion met
PLGILSNYV = criterion not met
FLLLTSIPI = criterion met
FLKIKVTAA = criterion met

Please find the next sequence below.
## Input For this sequence, is measured pIC50 6 or higher? IALALEQYGI
## Output criterion not met

====

biological target: HLA-A*68:02; assay: IEDB peptide-MHC binding, purified MHC/competitive/radioactivity; bounds were set here for any values at or beyond the usual limits of such assays; settings: source organism: Vaccinia virus WR
READOUT KIND: IC50 (nM)
Numbers only here, please. The scale is nM.

FVDTMSIYI = 465
HMYRGGNGNT = 3260

## Input Item DIIDLLLPST has what recorded IC50?
## Output 164

====

target: HLA-A*31:01; experiment: IEDB peptide-MHC binding, cellular MHC/competitive/fluorescence; bounds were set here for any values at or beyond the usual limits of such assays; conditions: source organism: Mammarenavirus juninense
pIC50: −log10 of the molar value.
READOUT KIND: pIC50

## Input Fill blank: measured pIC50 of the sequence ACQEAVKLK is ____.
## Output ≤ 4.15

====

Quick list: pIC50 per entry.
target: HLA-A*02:02; assay: IEDB peptide-MHC binding, cellular MHC/competitive/fluorescence; bounds were set here for any values at or beyond the usual limits of such assays; settings: source organism: Vaccinia virus WR
// pIC50 here means minus log10 of the molar concentration (mol/L)

Previously resolved entries follow.
EQRRSTIFDI = 4.64
DVGCLLTDTI = 4.97
LTHGADPNA = 4.71
PTDMLKLFT = 4.54
ITETIPIGM = 4.91
PTEMVDVSM = 4.98

## Input Fill in the blank: the reported pIC50 of DAIKSNNHLT is ____.
## Output 4.56

## Input How about this sequence: GVLHTKFWI
## Output 4.78

## Input One more sequence: LISSDGARVI
## Output 5.14

## Input Lookup TAEQLSKYV
## Output 5.28

## Input Entry to check: IAIFNNRNL
## Output 5.03

## Input Follow-up item: DVNEEYTEAA
## Output 4.33

## Input Then this sequence: QTGINNVQSL
## Output 4.69

## Input Moving on to IAVSVYGAIT
## Output 5.10

## Input Field entry: STVDVRNIV
## Output 5.20

====

The following sequences are listed with their measured pIC50 values.
target: HLA-A*02:01; test: IEDB peptide-MHC binding, cellular MHC/competitive/fluorescence; bounds were set here for any values at or beyond the usual limits of such assays; conditions: source organism: Vaccinia virus WR
Scale for pIC50: -log10 of concentration given in mol/L; no unit attached.

# count of solved cases: 10
EIRGVLPEET = 4.52
QLYTISSESL = 5.28
IVRCCAGDDI = 4.97
PLPCQLMYAL = 4.89
YVEHDPRLVA = 4.24
GAIYKLGSSI = 4.44
KLKYFLGSGA = 5.14
DQYKFHKLL = 4.80
EVGTNFGTI = 4.70
VQYRILPMII = 5.03

## Input What is its pIC50 for HLA-A*02:01? Entry: DLKHATDYIA
## Output 4.79

## Input Likewise for LTHFNNNENV ?
## Output 5.18

## Input Do the same for KTFIIHKNL please
## Output 5.02

## Input ALEPRKEIDV ?
## Output 4.57

## Input Record: YIIRRSGCRI
## Output 4.37

## Input Same lookup for IAEYIAGLKI , please.
## Output 5.11

## Input Query LQWDDNIPEL next
## Output 5.02

## Input Repeat with QARNIQKIT
## Output 5.17

## Input Now consider YVGSYASNGI and answer again.
## Output 4.82

## Input Record: CVVYPGNGFV
## Output 4.60
